Data credit: patent US20210079083A1

Target: T1, Human Angiopoietin-2 full-length (hAng2) (human, UniProt O15123 19-496)
T1 construct: The cell assays used full-length hAng2 from R&D Systems; also called human Ang2; A2
T1 sequence: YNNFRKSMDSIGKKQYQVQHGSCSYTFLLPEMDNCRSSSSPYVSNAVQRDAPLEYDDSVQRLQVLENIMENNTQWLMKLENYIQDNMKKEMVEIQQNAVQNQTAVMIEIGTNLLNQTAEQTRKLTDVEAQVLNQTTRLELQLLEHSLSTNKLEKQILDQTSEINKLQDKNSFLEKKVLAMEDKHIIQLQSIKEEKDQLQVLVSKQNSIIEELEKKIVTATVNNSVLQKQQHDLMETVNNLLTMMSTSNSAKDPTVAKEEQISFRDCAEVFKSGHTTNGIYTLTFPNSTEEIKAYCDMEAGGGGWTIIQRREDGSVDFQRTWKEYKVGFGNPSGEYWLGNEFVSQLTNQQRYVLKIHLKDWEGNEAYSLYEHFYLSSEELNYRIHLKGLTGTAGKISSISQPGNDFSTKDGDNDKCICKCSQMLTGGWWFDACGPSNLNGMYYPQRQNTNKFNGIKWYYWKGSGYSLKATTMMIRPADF
Assay: BLI (Octet), hAng2 fixed on AR2G sensor, antibody 3.125-50 nM in solution, 1:1 global fit
attribute_measured: koff (s⁻¹)
Quick reminder: number only, in s⁻¹, skip the unit.

Consider mouse anti-Ang2 antibody 4E2 (antibody, V domains shown, Mouse monoclonal antibody from a hybridoma, purified on Protein G) VH: EVQLQQSGPELEKPGASVKISCKASGYSFTGYNMNWVKQSNGKSLEWIGNIDPYYGGTSYNQKFKGKATLTVDKSSSTAYMQLKSLTSEDSAVYYCVRYGNYVDYWGQGTTLTVSS VL: DIVMTQSHKFMSTSVGDRVSITCKASQDVSTAVAWYQQKPGQSPKLLIYWASTRHTGVPDRFTGSGSGTDYTLTISSVQAEDLALYYCQQHYNTPPTFGSGTKLEIK . Its measured koff is 0.000134
